Documented PBM binding z-score across a set of sequences
Test system: RARa:RXR (NR concentration 270 nM, RXRa partner concentration 90 nM)
Protocol: PBM binding z-score (relative to random genomic background probes); higher = stronger binding; sequences stand for … in GC…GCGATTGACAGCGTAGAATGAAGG
Quantity: PBM binding z-score

[[record]]
seq_string = "ATCTCTCGGTAACCAAGTTCAGTGAATGCCGAAC"
quantity = "PBM binding z-score"
reported_value = 0.427

[[record]]
seq_string = "GCTAGCAGGCCATCTGGGTCACTCAATGACGGGC"
quantity = "PBM binding z-score"
reported_value = 0.713

[[record]]
seq_string = "TCAGACAGGTGAAGGTACCTCAGGTACGCAGTCG"
quantity = "PBM binding z-score"
reported_value = 0.888

[[record]]
seq_string = "CGTCAAAGTACAACTAAGGTAACGTAAAGCACGC"
quantity = "PBM binding z-score"
reported_value = 2.1

[[record]]
seq_string = "ACTAGTTGGTCAGCTGAGGTCACATACAATTCGG"
quantity = "PBM binding z-score"
reported_value = 4.17

[[record]]
seq_string = "TCTTGTAGATCAGCAGGTTAAGAACGCTGGCCAA"
quantity = "PBM binding z-score"
reported_value = 0.211

[[record]]
seq_string = "GATAGAGGGTCAGCTAGAGGCCAGAGTATGGAAA"
quantity = "PBM binding z-score"
reported_value = 3.7


====

System: RXRa homodimer (NR concentration 180 nM)
Protocol: PBM binding z-score (relative to random genomic background probes); higher = stronger binding; sequences stand for … in GC…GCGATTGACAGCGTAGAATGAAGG
Quantity: PBM binding z-score

[[record]]
seq_string = "CCTTACGGGTCAAGGTTATAGCGCGGGTGGTACG"
quantity = "PBM binding z-score"
reported_value = 5.01

[[record]]
seq_string = "CGTCCTAGGTCAAAGGTCAGTGAAGAGATGACGG"
quantity = "PBM binding z-score"
reported_value = 9.16

[[record]]
seq_string = "CCTCCGAGGACAGAAGGTCAGAGCTGTCCGCTTT"
quantity = "PBM binding z-score"
reported_value = 2.37

[[record]]
seq_string = "CGAACTAGGTCAGAACGGGACAGTGAAGGATGAT"
quantity = "PBM binding z-score"
reported_value = 1.15


====

Tested on: RARg:RXRa (NR concentration 270 nM, RXRa partner concentration 90 nM)
Protocol: PBM binding z-score (relative to random genomic background probes); higher = stronger binding; sequences stand for … in GC…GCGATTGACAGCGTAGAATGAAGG
Give true when the value for PBM binding z-score is at least 2. Give false when it is less.

[[record]]
seq_string = "AGTGAAAGTTCATCTAGGTAACGTAAGATATGCT"
assigned_label = "true"

[[record]]
seq_string = "TGAATGAGGTTATAAGATCAGCGAACGTTGCAAA"
assigned_label = "false"

[[record]]
seq_string = "GCTGCTAGGTCTGGTTGGTCAGCTAACGGGTACG"
assigned_label = "false"

[[record]]
seq_string = "TGTCAAAGTTTAAAGGTAACGTAAGTATCCACAC"
assigned_label = "true"

[[record]]
seq_string = "TAGCCTACGTCAGATCGGGCCAGTATACGCTATA"
assigned_label = "false"

[[record]]
seq_string = "CAAACTAAGTCACGAAAGGTCAAAGTCGAATGAC"
assigned_label = "true"


====

System: PPARg:RXRa IVT, anti-PPARg (NR concentration 270 nM, RXRa partner concentration 90 nM)
Protocol: PBM binding z-score (relative to random genomic background probes); higher = stronger binding; sequences stand for … in GC…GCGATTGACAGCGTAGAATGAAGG
Quantity: PBM binding z-score

[[record]]
seq_string = "CAAACTAGGTCACGAAAGATCAAAGTCGAATGAC"
quantity = "PBM binding z-score"
reported_value = 9.37

[[record]]
seq_string = "GATACTGGGTCAGCTAGAGGCCAGAGTATGGAAA"
quantity = "PBM binding z-score"
reported_value = 5.95

[[record]]
seq_string = "ACAGACAGTTGAGTGAAGGTAACTCAGCTGGACG"
quantity = "PBM binding z-score"
reported_value = 0.038

[[record]]
seq_string = "TCGAGAAGGTTAGGGGCATTCAGAATGGCGTCGA"
quantity = "PBM binding z-score"
reported_value = 0.162

[[record]]
seq_string = "CGAAGTAGGTCAAGGACAGTGAATCTCCGCACGC"
quantity = "PBM binding z-score"
reported_value = 8.73

[[record]]
seq_string = "TCAAATAGGTAAAGGTGAAAGTCGAACGATATGA"
quantity = "PBM binding z-score"
reported_value = 3.47

[[record]]
seq_string = "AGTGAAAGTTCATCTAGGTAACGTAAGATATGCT"
quantity = "PBM binding z-score"
reported_value = 3.41

[[record]]
seq_string = "CCTCGGAGGGCAACAGGAGGTCAGAGCTGCCAGA"
quantity = "PBM binding z-score"
reported_value = 1.54

[[record]]
seq_string = "TGACCAAGGTGAGCTGAGGTCGTTGATCCAACTC"
quantity = "PBM binding z-score"
reported_value = 1.43

[[record]]
seq_string = "GGAACGAGGGCAAGTTGATAGAAGAGTTTGATGG"
quantity = "PBM binding z-score"
reported_value = 2.75

[[record]]
seq_string = "TCGATTAGTTGAAGGGCAACCGACGAGTCCGTTT"
quantity = "PBM binding z-score"
reported_value = 0.195

[[record]]
seq_string = "CGAACTAGGTCAGAACAGGACCGTGAAGGATGAT"
quantity = "PBM binding z-score"
reported_value = 7.06

[[record]]
seq_string = "TCTTGTAGATCAAGCAGGCTAAGAAAGCCTGAGT"
quantity = "PBM binding z-score"
reported_value = 0.173

[[record]]
seq_string = "GCTGCTAGGTCAGGTTGATCAGCTAACGGGTACG"
quantity = "PBM binding z-score"
reported_value = 2.17

[[record]]
seq_string = "ATTTGTAGGTTAGCTGGGGTCATTCAGACTAGGC"
quantity = "PBM binding z-score"
reported_value = 5.05

[[record]]
seq_string = "ATCTCTAGGTAAAGTACAGTGAAAGATCGATAGA"
quantity = "PBM binding z-score"
reported_value = 2.03

[[record]]
seq_string = "AGAATGAGGTTATTAAGATCAGGGTATTGCGGTC"
quantity = "PBM binding z-score"
reported_value = 2.66

[[record]]
seq_string = "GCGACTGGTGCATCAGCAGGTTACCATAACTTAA"
quantity = "PBM binding z-score"
reported_value = -0.572

[[record]]
seq_string = "TGAATGAGGTTAAAGATCCGGGAACGTGGCGTCG"
quantity = "PBM binding z-score"
reported_value = 2.41

[[record]]
seq_string = "TCATATAGGTAATAGAGGTGAAAGTCGGCATCTA"
quantity = "PBM binding z-score"
reported_value = 4.06

